Molecular target: T1, Rat plasma Kallikrein (rat, UniProt P14272 391-638, limits assumed)
T1 construct: domain: catalytic domain; also called rPK; rat PK
T1 sequence (P14272 391-638 limits assumed): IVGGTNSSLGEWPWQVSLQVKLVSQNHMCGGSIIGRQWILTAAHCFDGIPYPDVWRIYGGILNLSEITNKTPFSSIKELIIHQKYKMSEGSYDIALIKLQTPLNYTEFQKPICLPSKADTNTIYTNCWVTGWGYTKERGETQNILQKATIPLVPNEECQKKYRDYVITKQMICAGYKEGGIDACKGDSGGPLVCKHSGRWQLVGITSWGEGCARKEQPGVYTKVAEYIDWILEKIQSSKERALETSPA
Experiment: enzyme inhibition assay
Numbered stars: 1 amine (or outer) side, 2 acyl side, 3 side chain; on linkers, the order of the positions; unused ones are H or OH. Bridge positions count the residues as written; N and C are the ends. Ends that are not written are not given here. TBMB = c1c(C[*:1])cc(C[*:3])cc1C[*:2]
value.type: pIC50
Convention used: pIC50 is expressed as -log10 of the molar concentration.

Past entries and their recorded results:
binder	pIC50
ACRWPARCLHQDLCA (linker 2-8-14 via TBMB; not fully specified (N-terminus, C-terminus)) [06-34-05]	9.21
ACSWPARCLHQDLCA (linker 2-8-14 via TBMB; not fully specified (N-terminus, C-terminus)) [06-34-18 (01 + 05)]	9.25
ACSWPARCVHQDLCA (linker 2-8-14 via TBMB; not fully specified (N-terminus, C-terminus)) [06-34-01]	8.21
ACSWPARCTHQDLCA (linker 2-8-14 via TBMB; not fully specified (N-terminus, C-terminus)) [06-34-03 (01 + 02)]	9.06

Pending binder:
Could you share which pIC50 value was measured for ACSWPAKCLHQDLCA (linker 2-8-14 via TBMB, also called WPAK peptide) [06-34-19 (01 + 05 + R/K)] ?
8.33
